We begin with a simple list: items and their reported Epc(b), cathodic potential.
Tested on: CT DNA
Experiment: Study of the DNA-interaction by cyclic voltammetry
Assay type: binding, calf
Conditions: M(II)/M(I), 1:2 DMSO/buffer, presence of CT DNA
Protocol: Cyclic voltammetry was used to study the interaction of the complexes with CT DNA. An intercalative interaction will induce a positive shift for the electrochemical potential(s) of metal oxidation/reduction, whereas, in the case of electrostatic interaction, a negative shift in the potential(s) may occur. The cyclic voltammograms of the complexes in a 1:2 DMSO:buffer solution (0.33 mM) were recorded in the absence and presence of the CT DNA solution (Figure S13). […]

I'd like to know its Epc(b), cathodic potential. The molecule in question is CN1CCN(c2c(F)cc3c(=O)c(C(=O)[O-])cn(CCF)c3c2F)CC1.[Cl-].[Cu+2].c1ccc(-c2ccccn2)nc1 [complex 6, [Cu(flrx)(bipy)Cl]]
−740 mV

// next record CN1CCN(c2c(F)cc3c(=O)c(C(=O)[O-])cn(CCF)c3c2F)CC1.CN1CCN(c2c(F)cc3c(=O)c(C(=O)[O-])cn(CCF)c3c2F)CC1.[Mn+2].c1cnc2c(c1)ccc1cccnc12 [complex 11, [Mn(flrx)2(phen)]]
−700 mV

Check CN1CCN(c2c(F)cc3c(=O)c(C(=O)[O-])cn(CCF)c3c2F)CC1.CN1CCN(c2c(F)cc3c(=O)c(C(=O)[O-])cn(CCF)c3c2F)CC1.[Cu+2] [complex 1, [Cu(flrx)2]] too.
−735 mV

Also need CN1CCN(c2c(F)cc3c(=O)c(C(=O)[O-])cn(CCF)c3c2F)CC1.CN1CCN(c2c(F)cc3c(=O)c(C(=O)[O-])cn(CCF)c3c2F)CC1.O.O.[Mn+2] [complex 2, [Mn(flrx)2(H2O)2]] , thanks.
−678 mV

Please give the result for CN1CCN(c2c(F)cc3c(=O)c(C(=O)[O-])cn(CCF)c3c2F)CC1.CN1CCN(c2c(F)cc3c(=O)c(C(=O)[O-])cn(CCF)c3c2F)CC1.[Co+2].c1ccc(Nc2ccccn2)nc1 [complex 16, [Co(flrx)2(bipyam)]] too.
−741 mV
